test system: K4 kissing-loop RNA reporter; experiment: apparent KD of K4 kissing-loop reporter; higher = weaker reporter binding; settings: Eterna round: R107; input ligand: FMN 200 uM
Hi, to clarify the labels: 1 (yes) covers apparent KD of K4 kissing-loop reporter from 300 nM upward, 0 (no) covers anything below 300 nM.

>  <RESIDUE_STRING>
AAAUAAAGCAGUCACCCAGUGAUGUUGGAAGGAGCGUGCGAAAGCACAGGUAGGUCGCCAAAACCUAAUACUGGCUGCUAAAUAA [#03 K4 Arginine A Exclusion]

>  <LABEL>
0 (no)

$$$$
>  <RESIDUE_STRING>
GGUGACAGCCAGGAGUGAUGUAUAGAAUAGCGAGGACCGGUACGGCCGCCACUCGUGAAGAGAAGGGAGUGAUGUUCCGUAAUGG [Kazoo C]

>  <LABEL>
1 (yes)

$$$$
>  <RESIDUE_STRING>
GCAGCACCGAGUGAUGUUUGGUUCAGCGUGAAGGAUAUAAUAUCUGUUAGAAGGUCAAGUGAGAUUGUCGCGAAUCAGUUUUGAU [theeternabot_exclusion_KL_FMN_A_41]

>  <LABEL>
1 (yes)

$$$$
>  <RESIDUE_STRING>
GCUACCUAUGCAGGAUAUGGUAUUACGAGUGAUGUUCGAGGCAUAUAGAGUGAUGUUCUAUAUCCACCAGAAGGGCAUAGGUAGC

>  <LABEL>
0 (no)

$$$$
>  <RESIDUE_STRING>
UGGGUGUAGUGAUGUUAUAUAGAGAGUGAUACCAGCGUAGAGAGAUGCCCUUGGCAGCAUAGAAGAGUAUCAUUGGAGGAGGAGG [ExTheophyl.Az]

>  <LABEL>
1 (yes)

$$$$
>  <RESIDUE_STRING>
CAUAGGAAACUAUGUAUCUCUCCGACUGAAGGAGCGCGUGAAAACGCAGGUAGGUCGCAGAAUUUAACGGAGAGUGAUGUUCUCU [Ex Arginine A K4 10]

>  <LABEL>
1 (yes)

$$$$

---

test system: K4 kissing-loop RNA reporter; assay: apparent KD of K4 kissing-loop reporter; higher = weaker reporter binding; conditions: Eterna round: R107; input ligand: FMN 200 uM

>  <RESIDUE_STRING>
ACCAUCAAAGAUGGCCAGGACUCCGCUGAUACCAGUGUGAAAACACUCCCUUGGCAGCAGGUGAGUGAUGUUCACAGUCCAUGGA [Omel KL Theo A SS B v3]

>  <apparent KD of K4 kissing-loop reporter (µM)>
0.145

$$$$
>  <RESIDUE_STRING>
AGUUCCGACGGAAGGAGCGGACAGUAUUGACGGAAAGGUGCAAGUGAUGUUUGCGCUUGUGUCCAGGUAGGUCGCCGUCGGAACA [Arg B SS t13]

>  <apparent KD of K4 kissing-loop reporter (µM)>
0.0913

$$$$
>  <RESIDUE_STRING>
GGGUGGCAGGCGGCCGCCACUCUGAGCACCCACUGAGUGAUGUUCGUGGCGUAAGCCUGUUCGUAGAGGACCGGGUUUGUUGUUC [Exclusion Tryptophan B GF 15]

>  <apparent KD of K4 kissing-loop reporter (µM)>
0.413

$$$$
>  <RESIDUE_STRING>
UUGAGCCGGACCCAAGUCCGGCUCUGCGAGCGAGGACCGGUACGGCCGCCACUCGGUGCAGUGAUGUUGCAUGGCCGCAAGGCCG [#2 Exclusion - Tryptophan A Attempt #7 (HarryS)]

>  <apparent KD of K4 kissing-loop reporter (µM)>
0.439

$$$$
>  <RESIDUE_STRING>
UGUCAUUGGUCUGAUACCAGCUGAUCGGAAACGAUCUUGCUGGAGUGAUGUUCCAGGAAAAGCCCUUGGCAGCAGACCGAUGACU [TheoBS 10 #SwitchBubble #StaticStem]

>  <apparent KD of K4 kissing-loop reporter (µM)>
1.32

$$$$
>  <RESIDUE_STRING>
GCCGUAGAUUGAAGGAGCGGACAGAUACGGGAAUCCAGUGAUGUUGGAAGGUAACUACUAGUCCAGGUAGGUCGCAAUCUACGGC

>  <apparent KD of K4 kissing-loop reporter (µM)>
0.143

$$$$

---

test system: K4 kissing-loop RNA reporter; test: apparent KD of K4 kissing-loop reporter; higher = weaker reporter binding; details: Eterna round: R107; input ligand: FMN 200 uM
Reported apparent KD of K4 kissing-loop reporter values for a set of sequences
MEASURED_PARAMETER: apparent KD of K4 kissing-loop reporter (nM)

>  <RESIDUE_STRING>
AUGACAGAAUCGGCCGCCACUCAUUGUCCUGUGGACAUUCUAGGAUUAGUGAUGUUUUUCCCAUCGAGGACCGGGAUACAGAUUG [theeternabot_sameState_KL_Trp_B_6]

>  <TARGET_OR_TEST_SYSTEM>
K4 kissing-loop RNA reporter

>  <NUMBER>
675

$$$$
>  <RESIDUE_STRING>
AUGGGUUUGGGAGGAUAUCCUUCCCACGUCGAAGUACCGUGCUUGAUGGAGUGAUGUUCGAUCAGAGGAGAAGGCCCGGAUUUAU [Same State FMN B GF21]

>  <TARGET_OR_TEST_SYSTEM>
K4 kissing-loop RNA reporter

>  <NUMBER>
754

$$$$
>  <RESIDUE_STRING>
GUGAAGGAGCUGCAGUGAUGUUGCAGAGACUAGGAUAUCAGGAAACUGAGAAGGAGUCAACUCCUUCACCUAGACACUGCAGAAA [[F]''-[K1]-[K2]-[F1]-[F2]-[F2]'-[F1]'-[K]'_Design1]

>  <TARGET_OR_TEST_SYSTEM>
K4 kissing-loop RNA reporter

>  <NUMBER>
110

$$$$

---

test system: K4 kissing-loop RNA reporter; assay: apparent KD of K4 kissing-loop reporter; higher = weaker reporter binding; details: Eterna round: R107; input ligand: arginine 13.2 mM;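 further: bound reporter read as fluorescence of individual clusters on recovered sequencing chips by microscopy, with normalized cluster intensities fitted with a binding model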

>  <RESIDUE_STRING>
UGGACUAGUGUGAGUGAUGUUCACUUCGAUACCAGCAGAGCGAUCUGCCCUUGGCAGCGAGUUAACUGCCGAAAGGCAAGGUCCA [Theo B SS t9a]

>  <apparent KD of K4 kissing-loop reporter>
478 nM

$$$$
>  <RESIDUE_STRING>
UUUAAAUAUAGUGAUGUUAUAUAACAAUGACGAGGACCGGUACGGCCGCCACUCGAGAGAGAUAAUGGUCUAUAGAAUCUAUAGC [AstrosSSTryA#4]

>  <apparent KD of K4 kissing-loop reporter>
622 nM

$$$$
>  <RESIDUE_STRING>
UGUACCGAGUCAGGAUAUCAUAAUAAUGCAGUGAUGUUGCAAUAACGACUGACAAAGUCGGUCGAUUGAGAAGGGACUUGGUACU [FmnBS 6 #SwitchBubble #StaticStem]

>  <apparent KD of K4 kissing-loop reporter>
118 nM

$$$$
>  <RESIDUE_STRING>
GUUACGCAUGGAAGGAGCGCACUCCGGUUGAUCAACACAGUGAUGUUGUGGUUCAUUCGAAUGCAGGUAGGUCGCCAUGUGUAAC [Ex Arginine B K4 16]

>  <apparent KD of K4 kissing-loop reporter>
724 nM

$$$$
>  <RESIDUE_STRING>
CACGCCUGUUGUCUGGUAGACAGAUCAGAUACCAGACAUAGUGAUGUCCCUUGGCAGCUGAACAUCCAGUGAUGUUGGAUGCGUU [Theo A SS t11]

>  <apparent KD of K4 kissing-loop reporter>
333 nM

$$$$
>  <RESIDUE_STRING>
UUUAGAUGAAGUGAUACCAGACUUGAAAGUGAUGUUUUCCAAUAAUUUAAAUUAUUAGCUGUCCCUUGGCAGCACAGUUUAUUUA [JR_ExcTheophyB_Sub008]

>  <apparent KD of K4 kissing-loop reporter>
326 nM

$$$$

---

tested on: MS2 coat protein; experiment: apparent KD of MS2 coat protein; designed switch direction (-1 OFF switch, 1 ON switch): -1; higher = weaker reporter binding; conditions: input ligand: FMN 200 uM

>  <RESIDUE_STRING>
AAUUAGCAAGCGAGAUCCCACAUGAGGAUCACCCAUGUGCUCGUCUUAUAAGGUACUGUGACGAUAGUCACGGUACC [Mat - Sensor, turn-off var - Eli Mod - D20] (Eterna round: R97, puzzle: Sensor, turn-off variant 1)

>  <apparent KD of MS2 coat protein>
15.6 nM

$$$$
>  <RESIDUE_STRING>
AUCCUUAACAAGGAUAUCGGGCGGGAAAUUGUUUGAGAAGGUGUAACAUGAGGAUCACCCAUGUGGCGCGUGGA [-20.8, -18.9 kcal, A 28%] (Eterna round: R97, puzzle: Exclusion 6)

>  <apparent KD of MS2 coat protein>
54.6 nM

$$$$

---

Reported apparent KD of MS2 coat protein values for a set of sequences
tested on: MS2 coat protein; test: apparent KD of MS2 coat protein; higher = weaker reporter binding; conditions: Eterna round: R107; input ligand: theophylline 20 uM

>  <RESIDUE_STRING>
GAGCUGAUGUAGGCCGGAUAUCCGGGAGAUACCAGUACAGAAAUGUACCCUUGGCAGCUCUUUCCUACAUGAGGAUCACCCAUGU [Ex Theophylline A 28]

>  <apparent KD of MS2 coat protein (nM)>
21.7

$$$$
>  <RESIDUE_STRING>
AGUUGCGUUGGAAGGAGCGGCAUGUGUGGGCCUCCUUACAAUACAUGAGGAUCACCCAUGUGCCAGGUAGGUCGCCAACACAGGU [Tiedmaqu]

>  <apparent KD of MS2 coat protein (nM)>
79.8

$$$$
>  <RESIDUE_STRING>
AACCGAGGCUAUCCUCUACGACUAUGUGAUACCAGAAUAAUUUUAUUCCCUUGGCAGCAUGACAUGAGGAUCACCCAUGUCUCUU [SSTheo A #9]

>  <apparent KD of MS2 coat protein (nM)>
38.8

$$$$
